# PROTOCOL_SUMMARY: S. cerevisiae growth modulation with rapamycin, primary screen, strain BY4716, OD600, 96 h (AID 1091); also: test concentration not given here
# RECORDED_CONDITIONS: higher = more signal, called active from +8 up or from −8 down
MEASUREMENT_KIND: z-score
Enter the number alone.

COc1ccc(CCN2C(=O)[C@@]3(c4ccc([N+](=O)[O-])cc4)CC(=O)N(CC45CC6CC(CC(C6)C4)C5)[C@@H]3c3ccc(CO)cc32)cc1 : -1.6

Ask: I would be grateful if you could share the reported z-score for C[C@]1(C(=O)NCCN2CCOCC2)c2ccccc2C(=O)N(Cc2ccccc2)[C@H]1c1ccc(CO)cc1 .
Result: -0.877

Ask: Need z-score of CCc1cccc(NC(=O)O[C@H]2[C@H](OC(=O)Nc3ccccc3)[C@@H](OC(=O)Nc3ccccc3)[C@@H](OC)O[C@@H]2CO)c1 , thanks.
Result: 1.97

Ask: Consider the molecule C=C(C)[C@@H]1CC=C(C(O)C2C=CC3C(=O)NC(=O)C3N2Nc2ccccn2)CC1 (stereo partly drawn) and give its measured z-score.
Result: -0.285

Ask: Name the reported z-score value associated with the molecule C[C@H]1C2[C@H](Cc3ccccc3)NC(=O)[C@]23C(=O)N[C@H](Cc2ccccc2)C(=O)N[C@@H](Cc2ccccc2)C(=O)NC/C=C\C/C=C/C3[C@@H]2O[C@]12C (stereo partly drawn)
Result: -0.639

Ask: What measured z-score goes with Cc1ccc(S[C@]2(C(=O)NCCN3CCOCC3)CC(=O)N(C3Cc4ccccc4C3)[C@@H]2c2ccc(CO)cc2I)cc1 ?
Result: 0.401

Ask: Entry C=CC[C@]1(C(N)=O)N=C(c2ccc(OCCCO)cc2)O[C@H]1c1ccccc1CN=[N+]=[N-] : reported z-score = ?
Result: -0.655

Ask: I would be grateful if you could share the reported z-score for O=C1C[C@@](C(=O)NC2CC2)(c2ccc([N+](=O)[O-])cc2)[C@@H](c2ccc(CO)cc2I)N1CC12CC3CC(CC(C3)C1)C2 .
Result: 5.3

Ask: So what's the measured z-score for this one? CN(C)CCCC[C@@H]1NC(=O)[C@@H]2C[C@H](C(=O)NCCCCCNC(=O)CS)[C@H](c3ccc(O)cc3)N2C1=O
Result: -0.342

Ask: Can you share its z-score? I mean this molecule: O=C1O[C@H](c2ccccc2)[C@H](c2ccccc2)N2[C@H]1[C@@H](C(=O)Nc1nc3ccccc3s1)[C@]1(C(=O)Nc3ccc(C#CC4=CCCCC4)cc31)[C@H]2c1ccccc1OCCO
Result: 4.5

Ask: Value lookup for z-score; key = CO[C@H]1COC(=O)CC=C[C@@H](C)COC(=O)[C@@H](C)NC(=O)CC=C[C@@H]1C
Result: -2.71

Ask: # query: z-score of entry O=C/C=C/c1ccccc1Cl
Result: -0.6

Ask: Quick one: z-score of [N-]=[N+]=NCc1ccccc1C[C@]1(C(N)=O)N=C(c2ccc(OCCCO)cc2)O[C@H]1c1ccccc1CN=[N+]=[N-] ?
Result: -0.525

Ask: I'd like to know its z-score. The molecule in question is CCOC(=O)C1=CC[C@@H](c2ccc(-c3ccc(OCc4ccccc4)cc3)c(OC)c2)N(S(=O)(=O)c2ccc(C)cc2)[C@H]1c1ccccc1
Result: 3.66

Ask: State the recorded z-score for this entry: CCCNC(=O)[C@@]1(Sc2ccc(C)cc2)CC(=O)N(Cc2ccccc2Cl)[C@@H]1c1ccc(CO)cc1
Result: -2.53

Ask: Look up z-score: CC(C)(C)OC(=O)CC[C@]1(C(=O)N2CCCCC2)N=C(c2ccc(OCCCO)cc2)O[C@H]1c1ccccc1
Result: -1.07

Ask: Quick one: z-score of COC(=O)c1ccc(C#CC(NP(=O)(c2ccccc2)c2ccccc2)c2ccccc2)cc1 (stereo not drawn) ?
Result: 1.25

Ask: Which z-score value is on record for COC(=O)[C@@]1(Cc2ccccc2)[C@H]2c3cc(C(=O)N4CCCC4)n(CCN4CNCC4=O)c3C[C@H]2CN1C(=O)c1ccccc1 ?
Result: -0.153

Ask: Which z-score is reported for this molecule? CO[C@H]1O[C@H](CO)[C@@H](OC(=O)Nc2ccccc2)[C@H](OC(=O)Nc2ccc3c(c2)OCO3)[C@@H]1OC(=O)Nc1ccc2c(c1)OCO2
Result: 3.14

Just for reference, PubChem BioAssay is where these values come from.
